Recorded AUC(0-t) by entry
- Procedure details: Blood-brain barrier permeability: brain concentration after a single injection
- Assay type: in vivo, rat
- Condition summary: male, rat, in vivo, ip, 10 mg/kg, AUC0-6 h
- Method: The blood-brain barrier permeability of carbonyl-containing cyclic compounds is determined in in vivo studies. Healthy male rats used in the study were divided into compound group and control group. […] The above samples are filtered through a 0.45 micron nylon membrane, and then 20 microL of sample were load into a high-performance liquid chromatographic (HPLC) system (Model LC-16P, Shimadzu, Japan) to perform quantitative analysis.
Please respond with the number in ng·h/mL and leave the unit unwritten.

Some solved cases for reference:
{"Compound": "CCc1ccc(CCOc2ccc(CC3SC(=O)NC3=O)cc2)nc1 (stereo not drawn) [pioglitazone, reference compound]", "Value units": "ng·h/mL", "AUC(0-t)": 1510}
{"Compound": "CN(CCOc1ccc(CC2SC(=O)NC2=O)cc1)c1ccccn1 (stereo not drawn) [rosiglitazone, reference compound]", "Value units": "ng·h/mL", "AUC(0-t)": 774}

In the following, a different compound is considered.
AUC(0-t) reported for this compound CCc1ccc(CC/C=C/c2ccc3c(c2)C(=O)CC3)cc1 : 18700

* * *

- Tested on: HEK 293T cells
- Procedure details: Inhibition of reactive oxygen species production (ROS-Glo H2O2 Assay)
- Assay type: cell-based, human
- Condition summary: Homo sapiens, HEK-293T, 18 h, 18 hours incubation
Overview of reported pEC50 across a group of compounds:
Answer as the number alone; pEC50 is minus log10 of concentration in mol/L.

{"Compound": "CN(CCOc1ccc(CC2SC(=O)NC2=O)cc1)c1ccccn1 (centres unmarked) [rosiglitazone, reference compound]", "pEC50": 5.60}

Moving on to another compound below.
According to the records, this compound CCc1ccc(CCOc2ccc(CC3SC(=O)NC3=O)cc2)nc1 (centres unmarked) [pioglitazone, reference compound] displays pEC50 of 6.15

* * *

- System: klotho gene
- Procedure details: In vivo brain transcriptional activity of klotho gene (RT-PCR of brain mRNA)
- Set-up: species or system mouse
- Condition summary: 10 mg/kg body weight/day tail vein, after 10 days of continuous injection
Quantity name: mRNA level of klotho gene in the brain of the mouse relative to vehicle control group

{"Molecule": "CCc1ccc(CC/C=C/c2ccc3c(c2)C(=O)COC3)cc1", "Assay target": "klotho gene", "Result": "more than twice"}
{"Molecule": "CCc1ccc(CC/C=C/c2ccc3c(c2)NC(=O)CC3)cc1", "Assay target": "klotho gene", "Result": "more than twice"}
{"Molecule": "COc1ccc(CC/C=C/c2ccc3c(c2)C(=O)CC3)cc1", "Assay target": "klotho gene", "Result": "more than twice"}
{"Molecule": "CCc1ccc(CC/C=C/c2ccc3c(c2)NC(=O)CO3)cc1", "Assay target": "klotho gene", "Result": "more than twice"}
{"Molecule": "CCc1ccc(CC/C=C/c2ccc3c(c2)OCCC3=O)cc1", "Assay target": "klotho gene", "Result": "more than twice"}

As a next step, examine the molecule that follows.
Form field, mRNA level of klotho gene in the brain of the mouse relative to vehicle control group with klotho gene, item CCc1ccc(C/C=C/c2cccc(CC3NCC(=O)N3)c2)cc1 (stereo not drawn) : more than twice

* * *

- System: APP/PS1 transgenic mice
- Procedure details: Alzheimer's disease model, eight-arm radial water maze and brain gene expression
- Assay type: in vivo, mouse
- Condition summary: 30 days in food, 10 mg/kg body weight/day (donepezil 3 mg/kg body weight/day), 5 on the first day
Quantity name: number of errors in water maze on the third day

{"Entry smiles": "CCc1ccc(CC/C=C/c2ccc3c(c2)NC(=O)CC3)cc1", "Result": "~1"}

CCc1ccc(CC/C=C/c2ccc3c(c2)C(=O)CC3)cc1 tested on APP/PS1 transgenic mice gave number of errors in water maze on the third day: ~1

* * *

- System: HEK 293T cells
- Procedure details: Inhibition of reactive oxygen species production (ROS-Glo H2O2 Assay)
- Format: cell-based, human
- Condition summary: Homo sapiens, HEK-293T, 18 h, 18 hours incubation
Quantity name: EC50

Record excerpt, results attached:
{"Molecule": "CCc1cccc(CC/C=C/c2ccc3c(c2)C(=O)CC3)c1 [ELB001203]", "EC50": "< 3 µM"}
{"Molecule": "CCc1ccc(CCCCc2ccc3c(c2)C(=O)CC3)cc1 [ELB00825]", "EC50": "< 10 µM"}

Consider now this further molecule.
Case CCc1ccc(CC/C=C/c2ccc3c(c2)C(=O)COC3)cc1 [ELB001046] , HEK 293T cells, EC50 recorded as < 10 µM
